tested on: MV4-11 cells; assay: Cell proliferation assay (ATPlite); format: cell-based; settings: Homo sapiens, 120 h; MV4-11 cells, five days; read-out: GI MV411 EC50
pEC50: −log10 of the molar value.
quantity: pEC50

Example compounds with recorded pEC50:
- entry_smiles: "COc1cnc(N2CC=C(c3c(F)cc(N4C[C@@H](C)N(C)[C@@H](C)C4)c(NC(=O)c4c[nH]c(=O)cc4C(F)(F)F)c3F)CC2)nc1"
  test_system: "MV4-11 cells"
  pEC50: 7.12
- entry_smiles: "C[C@@H]1CN(c2nccc(-c3c(F)cc(N4CCN(C)[C@@H](C)C4)c(NC(=O)c4cn(C)c(=O)cc4C(F)(F)F)c3F)n2)C[C@H](C)O1"
  test_system: "MV4-11 cells"
  pEC50: 5.88

[1] COc1cc(N2CC=C(c3c(F)cc(N4CCN(C)[C@@H](C)C4)c(NC(=O)c4c[nH]c(=O)cc4C(F)F)c3F)C2)ncn1
[2] C[C@@H]1CN(c2cc(F)c(-c3ccc4c(c3)OCCO4)c(F)c2NC(=O)c2c[nH]c(=O)cc2C(F)(F)F)C[C@H](C)N1C
[3] C[C@@H]1CN(c2ccc(-c3c(F)cc(N4CCN(C)[C@@H](C)C4)c(NC(=O)c4cn(C)c(=O)cc4C(F)F)c3F)cn2)C[C@H](C)O1
Arrange the 3 entries by pEC50 so the values rise. Output spec: a listing of the labels in the requested order. 3, 2, 1
